Values compiled from PubChem BioAssay AID2060616.

Test system: 377384-186-R-J1-PDC complex spheroid viability
Assay: Anticancer human tumor 377384-186-R-J1-PDC patient-derived pancreatic carcinoma cell line growth inhibition [CLK]; active = viability on the fitted dose curve at most 10% of control; inactive = the rest
Details: second compound 10 µM; first compound 0.1 µM
Permitted responses: yes (1) for active, no (0) for inactive

Query: Write down the call the test reported for this compound. Item: COc1ccc([C@@H](O)c2cc(-c3ncnc4cc(N5CCOCC5)ccc34)c(F)cc2Cl)nn1 + CNC(=O)c1ccc(Nc2nc(OC3CCCC3)c3c(-c4ccc5nc(C)oc5c4)c[nH]c3n2)c(OC)c1
Response: no (0)

* * *

Below, each entry is listed with its recorded viability, T/C.
Test system: 377384-186-R-J1-PDC complex spheroid viability
Assay: Anticancer human tumor 377384-186-R-J1-PDC cell line growth inhibition [CLK];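 note: luminescence signal used as a stand-in for viable cells; spheroids exposed to agents for 7 days before reading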
Conditions: second compound 1 µM; first compound 0.00949 µM; stronger effect = lower value
I only need the number, in %, no unit after it.

Solved entries:
Query: Report viability, T/C for CC(C)CC(NC(=O)C(Cc1ccccc1)NC(=O)c1cnccn1)B(O)O (stereo unspecified) + CN1CCN(c2cc(C(=O)Nc3cc4cc(-c5cnn(C)c5)ccc4cn3)ccn2)CC1 tested on 377384-186-R-J1-PDC complex spheroid viability.
Response: 0.35

Query: // map C=CC(=O)Nc1cc(Nc2nccc(-c3cn(C)c4ccccc34)n2)c(OC)cc1N(C)CCN(C)C + CN1CCN(c2cc(C(=O)Nc3cc4cc(-c5cnn(C)c5)ccc4cn3)ccn2)CC1 to recorded viability, T/C (system: 377384-186-R-J1-PDC complex spheroid viability)
Response: 2.15

Query: What value of viability, T/C on 377384-186-R-J1-PDC complex spheroid viability does CC(C)CC(NC(=O)C(Cc1ccccc1)NC(=O)c1cnccn1)B(O)O (stereo unspecified) + CNC(=O)c1ccc(Nc2nc(OC3CCCC3)c3c(-c4ccc5nc(C)oc5c4)c[nH]c3n2)c(OC)c1 have?
Response: 0.28

Query: Lab request: please report viability, T/C under test system 377384-186-R-J1-PDC complex spheroid viability for NC(=O)C(=Cn1cnc(-c2cc(C(F)(F)F)cc(C(F)(F)F)c2)n1)c1cncnc1 + CN1CCN(c2cc(C(=O)Nc3cc4cc(-c5cnn(C)c5)ccc4cn3)ccn2)CC1
Response: 0.39

Query: viability, T/C of NC(=O)C(=Cn1cnc(-c2cc(C(F)(F)F)cc(C(F)(F)F)c2)n1)c1cncnc1 + CNC(=O)c1ccc(Nc2nc(OC3CCCC3)c3c(-c4ccc5nc(C)oc5c4)c[nH]c3n2)c(OC)c1 on 377384-186-R-J1-PDC complex spheroid viability?
Response: 18.9

---
Query: Request body: readout viability, T/C, system 377384-186-R-J1-PDC complex spheroid viability, query C=CC(=O)Nc1cc(Nc2nccc(-c3cn(C)c4ccccc34)n2)c(OC)cc1N(C)CCN(C)C + CNC(=O)c1ccc(Nc2nc(OC3CCCC3)c3c(-c4ccc5nc(C)oc5c4)c[nH]c3n2)c(OC)c1 . Return the value.
Response: 21.8
